- STUDY_SYSTEM: Recombinant STAT3 protein (STAT3 (G127-I722)) (Homo sapiens, UniProt P40763)
- Construct: Recombinant STAT3 protein (STAT3 (G127-I722))
- Sequence (P40763 127-722): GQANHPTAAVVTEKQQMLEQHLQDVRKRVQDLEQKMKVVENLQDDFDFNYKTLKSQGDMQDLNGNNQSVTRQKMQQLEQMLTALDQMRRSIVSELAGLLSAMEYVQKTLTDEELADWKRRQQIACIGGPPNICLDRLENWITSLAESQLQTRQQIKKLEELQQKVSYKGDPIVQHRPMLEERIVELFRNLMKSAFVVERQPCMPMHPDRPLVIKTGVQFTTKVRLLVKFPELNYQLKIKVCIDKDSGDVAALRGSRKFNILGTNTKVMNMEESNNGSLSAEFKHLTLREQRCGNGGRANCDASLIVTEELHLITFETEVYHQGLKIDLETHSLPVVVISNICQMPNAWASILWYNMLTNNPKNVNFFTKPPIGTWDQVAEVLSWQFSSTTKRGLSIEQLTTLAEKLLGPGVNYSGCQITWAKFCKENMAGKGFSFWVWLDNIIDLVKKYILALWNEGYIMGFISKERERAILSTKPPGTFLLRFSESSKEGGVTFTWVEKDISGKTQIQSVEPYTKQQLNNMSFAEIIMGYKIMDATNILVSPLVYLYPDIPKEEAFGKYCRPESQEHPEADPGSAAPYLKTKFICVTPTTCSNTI
- TEST_DETAILS: STAT3 Fluorescence Polarization (FP) Assay
- Format: binding
- APPLIED_CONDITIONS: STAT3 (G127-I722) 25 nM, probe 5-FAM-GpYLPQTV-NH2 2 nM, 45-minute incubation; read-out: STAT3 (FP assay IC50 class)
pIC50: −log10 of the molar value.
Attribute: pIC50

molecule="N#C[C@@H]1CN(C(=O)[C@@H]2C[C@@H](O)[C@@H]3CCCCC[C@H](NC(=O)c4cc5cc(C(F)P(=O)(O)O)ccc5s4)C(=O)N23)C[C@H]1c1ccccc1 (relative stereo)" result_value="5.00 to 6.00"

input: Any idea what pIC50 was measured for `O=C(N[C@H]1CCCC[C@H]2CC[C@@H](C(=O)N3CC(c4ccc[nH]c4=O)C3)N2C1=O)c1cc2cc(C(F)(F)P(=O)(O)O)ccc2s1` ?
output: > 7.00

input: Any idea what pIC50 was measured for O=C(N[C@H]1CCCC[C@H]2CC[C@@H](C(=O)N3CC(OCC(F)F)(c4ccccn4)C3)N2C1=O)c1cc2cc(C(F)P(=O)(O)O)ccc2s1 (stereo partly drawn) ?
output: > 7.00

input: Any idea what pIC50 was measured for `O=C(N[C@H]1CCC[C@H]2CC[C@@H](C(=O)NCc3cnc4[nH]cnc4c3)N2C1=O)c1cc2cc(C(F)(F)P(=O)(O)O)ccc2s1` ?
output: > 7.00

input: Any idea what pIC50 was measured for `O=C(N[C@H]1CC[C@H]2CC[C@@H](C(=O)N3CC(n4ccnc4)C3)N2C1=O)c1cc2cc(C(F)(F)P(=O)(O)O)ccc2s1` ?
output: 5.00 to 6.00

input: Any idea what pIC50 was measured for O=C(N[C@H]1CCC[C@H]2CC[C@@H](C(=O)N3CC(c4cnccc4N4C[C@@H]5C[C@H]4CO5)C3)N2C1=O)c1cc2cc(C(F)P(=O)(O)O)ccc2s1 (stereo partly drawn) ?
output: > 7.00

input: Any idea what pIC50 was measured for `CN(C)c1ncncc1C1CN(C(=O)[C@@H]2CC[C@@H]3CCC[C@H](NC(=O)c4cc5cc(CP(=O)(O)O)ccc5s4)C(=O)N32)C1` ?
output: > 7.00

input: Any idea what pIC50 was measured for CN(C)c1ncncc1C1CN(C(=O)[C@@H]2CC[C@@H]3CCC[C@H](NC(=O)c4cc5cc([C@@H](F)P(=O)(O)O)ccc5s4)C(=O)N32)C1 (single isomer, unassigned) ?
output: > 7.00

input: Any idea what pIC50 was measured for COc1c(C2CN(C(=O)[C@@H]3CC[C@@H]4CCC[C@H](NC(=O)c5cc6cc(C(F)P(=O)(O)O)ccc6s5)C(=O)N43)C2)cnn1C (stereo partly drawn) ?
output: 6.00 to 7.00

input: Any idea what pIC50 was measured for `COc1cc(C)c(C2CN(C(=O)[C@@H]3CC[C@@H]4CCC[C@H](NC(=O)c5cc6cc(CP(=O)(O)O)ccc6s5)C(=O)N43)C2)cn1` ?
output: 5.00 to 6.00

input: Any idea what pIC50 was measured for `COCC1(c2ncccn2)CN(C(=O)[C@@H]2CC[C@@H]3CCCC[C@H](NC(=O)c4cc5cc(C(F)(F)P(=O)(O)O)ccc5s4)C(=O)N32)C1` ?
output: 6.00 to 7.00

input: Any idea what pIC50 was measured for `O=C(N[C@H]1CCC[C@H]2CC[C@@H](C(=O)N3CC(c4cnccc4N4CCC4)C3)N2C1=O)c1cc2cc(CP(=O)(O)O)ccc2s1` ?
output: > 7.00

input: Any idea what pIC50 was measured for C/C1=C/[C@H]2CC[C@@H](C(=O)N3CC(c4ccccc4)CC34CC4)N2C(=O)[C@@H](NC(=O)c2ccc3ccc(CP(=O)(O)O)cc3c2)CC1 (stereo partly drawn) ?
output: 5.00 to 6.00

input: Any idea what pIC50 was measured for `N#Cc1ccnc(C2CN(C(=O)[C@@H]3CC[C@@H]4CCC[C@H](NC(=O)c5cc6cc(C(F)(F)P(=O)(O)O)ccc6s5)C(=O)N43)C2)n1` ?
output: > 7.00

input: Any idea what pIC50 was measured for Cn1ccc(=O)c(C2CN(C(=O)[C@@H]3CC[C@@H]4CCC[C@H](NC(=O)c5cc6cc(C(F)P(=O)(O)O)ccc6s5)C(=O)N43)C2)c1 (stereo partly drawn) ?
output: 6.00 to 7.00

input: Any idea what pIC50 was measured for O=C(N[C@H]1CCCC[C@H]2CC[C@@H](C(=O)N3CCC(c4ccccn4)CC3)N2C1=O)c1cc2cc(C(F)P(=O)(O)O)ccc2s1 (stereo partly drawn) ?
output: 6.00 to 7.00
